- measurement notes: Pharmacokinetic studies in mice (plasma and brain, IV and oral gavage)
- Assay type: in vivo, male CD-1 mice
- cond: male, CD-1, mouse; brain; oral 50 mg/kg; read-out: Exposure/trapezoid AUC0-inf
reported endpoint: AUC(0-inf) (ng·h/mL)

INSERT INTO results (compound, quantitative_result) VALUES
  ('O=C(Nc1ccc2c(c1)B(O)OCC2)c1ccc(F)cc1C(F)(F)F [M1]', 24700);

* * *

- measurement notes: Pharmacokinetic studies in mice (plasma and brain, IV and oral gavage)
- Type: in vivo, male CD-1 mice
- cond: male, CD-1, mouse; brain; oral 25 mg/kg; read-out: Exposure/trapezoid AUC0-inf
- Experimental: Male CD-1 mice weighing approximately 20 to 30 g received the test article M1 by either intravenous (IV) or oral gavage (OG) routes. Animals in the IV group (11 animals, 1 per time point) received a single bolus injection at a nominal dose level of 2 mg/kg of the test article. Animals receiving oral doses were administered the test article as a single OG dose (10 animals per dose level, 1 per time point) at nominal dose levels of 25 and 50 mg/kg. […]
reported endpoint: AUC(0-inf) (ng·h/mL)

INSERT INTO assay_data (compound_structure, reported_endpoint, unit, quantitative_result) VALUES
  ('O=C(Nc1ccc2c(c1)B(O)OCC2)c1ccc(F)cc1C(F)(F)F', 'AUC(0-inf)', 'ng·h/mL', 14400);

* * *

- measurement notes: Pharmacokinetic studies in mice (plasma and brain, IV and oral gavage)
- Format: in vivo, male CD-1 mice
- cond: male, CD-1, mouse; brain; IV 2 mg/kg; read-out: Exposure/trapezoid AUC0-inf
reported endpoint: AUC(0-inf)

INSERT INTO results (compound, reported_endpoint, result) VALUES
  ('O=C(Nc1ccc2c(c1)B(O)OCC2)c1ccc(F)cc1C(F)(F)F [M1]', 'AUC(0-inf)', '890 ng·h/mL');

* * *

- measurement notes: Pharmacokinetic studies in mice (plasma and brain, IV and oral gavage)
- Type: in vivo, male CD-1 mice
- cond: male, CD-1, mouse; plasma; oral 50 mg/kg; read-out: Exposure/trapezoid AUC0-inf
reported endpoint: AUC(0-inf) (ng·h/mL)

INSERT INTO results (compound_structure, reported_endpoint, quantitative_result) VALUES
  ('O=C(Nc1ccc2c(c1)B(O)OCC2)c1ccc(F)cc1C(F)(F)F', 'AUC(0-inf)', 83400);

* * *

Each entry below carries its reported MDCK-MCR1 AQ.
- Test system: MDCK-MDR1 cells
- measurement notes: in vitro
- Format: in vitro ADME, canine
- cond: 3 μM test compound
reported endpoint: MDCK-MCR1 AQ

INSERT INTO measurements (compound_structure, quantitative_result) VALUES
  ('O=S(=O)(Nc1ccc2c(c1)B(O)OCC2)c1ccc(Cl)cc1', 0.05),
  ('O=C(Nc1ccc2c(c1)B(O)OCC2)c1ccc(F)cc1C(F)(F)F', '−0.02'),
  ('O=C(Nc1ccc2c(c1)B(O)OCC2)c1ccc(Cl)cc1Cl', '−0.03'),
  ('CCc1ccc(C(=O)Nc2ccc3c(c2)B(O)OCC3)cc1', '−0.04'),
  ('O=C(Nc1ccc2c(c1)B(O)OCC2)c1ccccc1Cl', 0.1),
  ('CC(C)c1ccc(S(=O)(=O)Nc2ccc3c(c2)B(O)OCC3)cc1', 0.04),
  ('Cc1ccc(S(=O)(=O)Nc2ccc3c(c2)B(O)OCC3)cc1', 0.05),
  ('O=C(Nc1ccc2c(c1)B(O)OCC2)c1ccc(Cl)cc1F', '−0.04');
